From: paper PMC7343282

Each item that follows carries a reported concentration at 7 d.
# experimental details: Tissue concentrations in rainbow trout after 7 d exposure via water (two mixtures)
# Type: in vivo, Oncorhynchus mykiss
# condition parameters: rainbow trout (Oncorhynchus mykiss), in vivo, pH 7.5, Concentration in skin
Please reply with the bare figure in ng/g and do not write the unit itself.

Here are 3 molecules together with their reported answers.
| given smiles | concentration at 7 d (ng/g) |
| --- | --- |
| CCCCCCCCCCCCCCCCN | 364 |
| CCCCCCCCCCCCN | 2720 |
| CCCCCCCCCCCCCN | 2040 |

Let us move to another entry and its concentration at 7 d.
Memo: CCCCCCCCCN , reported concentration at 7 d: 70

###

# Tested on: rainbow trout (Oncorhynchus mykiss)
# experimental details: Tissue concentrations in rainbow trout after 7 d exposure via water (two mixtures)
# Type: in vivo
# condition parameters: rainbow trout (Oncorhynchus mykiss), in vivo, 7 d, pH 7.5
measured attribute: Concentration in blood

Here are 3 compounds together with their reported answers.
| given smiles | Concentration in blood |
| --- | --- |
| CCCCCCCCCN | 46 (29) ng g^–1 |
| CCCCCCCCCCCCN | 770 (26) ng g^–1 |
| CCCCCCCCCCCCCN | 540 (12) ng g^–1 |

Memo: CCCCCCCCCCCCCCCCN , reported Concentration in blood: 130 (19) ng g^–1

###

# Tested on: rainbow trout (Oncorhynchus mykiss)
# experimental details: Contribution of tissues to fish body burden
# Assay type: in vivo
# condition parameters: fraction, Mean
Each item that follows carries a reported Contribution of Gills to the fish's body burden.
Write no unit; give the number alone.

| given smiles | value |
| --- | --- |
| CCCCCCCCCCCCCN(C)C | 0.26 |
| CCCCCCCCCCCCN | 0.28 |
| CCCCCCCCCN | 0.30 |
| CCCCCCCCCCCCCCCCN | 0.58 |
| CCCCCCCCCCCCCN | 0.28 |

Let us move to another entry and its Contribution of Gills to the fish's body burden.
Memo: CCCCCCCCCN(C)C , reported Contribution of Gills to the fish's body burden: 0.13

###

# Tested on: rainbow trout (Oncorhynchus mykiss)
# experimental details: Contribution of tissues to fish body burden
# Type: in vivo
# condition parameters: fraction, Fish #1
Each item that follows carries a reported Contribution of Blood to the fish's body burden.
Write no unit; give the number alone.

| given smiles | value |
| --- | --- |
| CCCCCCCCCCCCN | 0.014 |

Let us move to another entry and its Contribution of Blood to the fish's body burden.
Memo: CCCCCCCCCCCCCN , reported Contribution of Blood to the fish's body burden: 0.013

###

# Test system: rainbow trout (Oncorhynchus mykiss)
# experimental details: Contribution of tissues to fish body burden
# Type: in vivo
# condition parameters: mean across fish, Figure 1
measured attribute: % contribution to body burden, Mucus (%)
Please reply with the bare figure in % and do not write the unit itself.

Entry CCCCCCCCCN(C)C [T9, N,N-dimethylnonylamine] ; assay system rainbow trout (Oncorhynchus mykiss); % contribution to body burden, Mucus recorded at 10

Entry CCCCCCCCCCCCCCCCN [P16, hexadecylamine] ; assay system rainbow trout (Oncorhynchus mykiss); % contribution to body burden, Mucus recorded at 4

Entry CCCCCCCCCCCCN [P12, Dodecylamine] ; assay system rainbow trout (Oncorhynchus mykiss); % contribution to body burden, Mucus recorded at 15

###

Each item that follows carries a reported Contribution of Liver to the fish's body burden.
# Test system: rainbow trout (Oncorhynchus mykiss)
# experimental details: Contribution of tissues to fish body burden
# Format: in vivo
# condition parameters: fraction, Fish #6
# Source text: To calculate the quantity of the test chemical in the different tissues, the amount of each tissue in the fish was estimated and multiplied by the concentration in that tissue. The test chemical quantities in the different tissues were then summed to give the body burden in each fish. […] The remaining tissue (difference between the weight of the whole fish and the weight of liver, gills, skin, and blood) was assumed to have the concentration measured in the muscle. […]
Write no unit; give the number alone.

Here are 5 compounds together with their reported answers.
| given smiles | value |
| --- | --- |
| CCCCCCCCCCCCN | 0.16 |
| CCCCCCCCCCCCCCCCN | 0.11 |
| CCCCCCCCCN(C)C | 0.26 |
| CCCCCCCCCCCCCN(C)C | 0.06 |
| CCCCCCCCCCCCCN | 0.27 |

Let us move to another entry and its Contribution of Liver to the fish's body burden.
Memo: CCCCCCCCCN , reported Contribution of Liver to the fish's body burden: 0.08

###

# Test system: rainbow trout (Oncorhynchus mykiss)
# experimental details: Apparent bioconcentration factor at end of 7-day exposure
# Format: in vivo
# condition parameters: end of 7-day exposure, body burden including mucus
Each item that follows carries a reported Apparent bioconcentration factor (BCFapp).
Please reply with the bare figure in L kg-1 wet weight and do not write the unit itself.

| given smiles | value |
| --- | --- |
| CCCCCCCCCN(C)C | 5.4 |

Memo: CCCCCCCCCN , reported Apparent bioconcentration factor (BCFapp): 3.3

Memo: CCCCCCCCCCCCCN(C)C , reported Apparent bioconcentration factor (BCFapp): 510

Memo: CCCCCCCCCCCCCN , reported Apparent bioconcentration factor (BCFapp): 490

###

# Test system: rainbow trout (Oncorhynchus mykiss)
# experimental details: Contribution of tissues to fish body burden
# Format: in vivo
# condition parameters: mean across fish, Figure 1; includes all tissues not specifically analyzed; Q10, Q14 maximum estimates
Each item that follows carries a reported % contribution to body burden, Muscle.
Please reply with the bare figure in % and do not write the unit itself.

Here are 3 compounds together with their reported answers.
| given smiles | % contribution to body burden, Muscle (%) |
| --- | --- |
| CCCCCCCCCCCCCCCCN | 13 |
| CCCCCCCCCN | 12 |
| CCCCCCCCCN(C)C | 37 |

Memo: CCCCCCCCCCCCCN(C)C , reported % contribution to body burden, Muscle: 31

Memo: CCCCCCCCCCCCCN , reported % contribution to body burden, Muscle: 18

Memo: CCCCCCCCCCCCN , reported % contribution to body burden, Muscle: 16

###

# Tested on: rainbow trout (Oncorhynchus mykiss)
# experimental details: Contribution of tissues to fish body burden
# Assay type: in vivo
# condition parameters: fraction, Fish #3
Each item that follows carries a reported Contribution of Liver to the fish's body burden.
Write no unit; give the number alone.

Here are 5 compounds together with their reported answers.
| given smiles | value |
| --- | --- |
| CCCCCCCCCN(C)C | 0.11 |
| CCCCCCCCCCCCCCCCN | 0.12 |
| CCCCCCCCCCCCN | 0.20 |
| CCCCCCCCCCCCCN(C)C | 0.11 |
| CCCCCCCCCCCCCN | 0.16 |

Let us move to another entry and its Contribution of Liver to the fish's body burden.
Memo: CCCCCCCCCN , reported Contribution of Liver to the fish's body burden: 0.17

###

# Tested on: rainbow trout (Oncorhynchus mykiss)
# experimental details: Contribution of tissues to fish body burden
# Type: in vivo
# condition parameters: in vivo
Each item that follows carries a reported % contribution to body burden, Muscle.
Please reply with the bare figure in % and do not write the unit itself.

Here are 3 molecules together with their reported answers.
| molecule | tested target | display unit | value |
| --- | --- | --- | --- |
| CCCCCCCCCCN(C)C [T10, N,N-dimethyldecylamine] | rainbow trout (Oncorhynchus mykiss) | % | 38 |
| CCCCCCCCCCCCCCN(C)C [T14, N,N-dimethyltetradecylamine] | rainbow trout (Oncorhynchus mykiss) | % | 22 |
| CCCCCCCCCCCCCCCCNC [S16, N-methylhexadecylamine] | rainbow trout (Oncorhynchus mykiss) | % | 16 |

Memo: CCCCCCCCCCCCNC [S12, N-methyldodecylamine] , reported % contribution to body burden, Muscle: 32

Memo: CCCCCCCCCCCCCC[N+](C)(C)C [Q14, N,N,N-trimethyl-1-tetradecylammonium] , reported % contribution to body burden, Muscle: 7

Memo: CCCCCCCCCC[N+](C)(C)C [Q10, N,N,N-trimethyl-1-decylammonium] , reported % contribution to body burden, Muscle: 37

###

# Tested on: rainbow trout (Oncorhynchus mykiss)
# experimental details: Surface area-normalized mucus-water and gill-water distribution coefficients
# condition parameters: from average concentrations in mucus and water
measured attribute: Mucus-water distribution coefficient (DMuc-W) (mL cm-2)
Please reply with the bare figure in mL cm-2 and do not write the unit itself.

Here are 2 molecules together with their reported answers.
| given smiles | value |
| --- | --- |
| CCCCCCCCCN | 0.47 |
| CCCCCCCCCCCCN | 16.3 |

Memo: CCCCCCCCCN(C)C , reported Mucus-water distribution coefficient (DMuc-W): 0.29

Memo: CCCCCCCCCCCCCN(C)C , reported Mucus-water distribution coefficient (DMuc-W): 22

Memo: CCCCCCCCCCCCCN , reported Mucus-water distribution coefficient (DMuc-W): 25
